- System: MDA-MB-435
- TEST DESCRIPTION: NCI tumour cell line growth inhibition, 48 h
Listed below: TGI values for each entry.
ASSAY READOUT: TGI

>  <MOLECULE>
CN(CC(=O)O)c1ncc2c(n1)-c1ccccc1OC2

>  <TARGET OR TEST SYSTEM>
MDA-MB-435

>  <VALUE>
> 100 µM

$$$$
>  <MOLECULE>
COc1cc(N(Cc2ccc3nc(OC)c(OC)nc3c2)Cc2ccc3nc(OC)c(OC)nc3c2)cc(OC)c1OC

>  <TARGET OR TEST SYSTEM>
MDA-MB-435

>  <VALUE>
> 50 µM

$$$$
>  <MOLECULE>
C/C(=N\NC(=S)N(C)CCN(C)C(=S)N/N=C(\C)c1ccccn1)c1ccccn1

>  <TARGET OR TEST SYSTEM>
MDA-MB-435

>  <VALUE>
> 100 µM

$$$$
>  <MOLECULE>
O=C(NN=C1CCCCC1)c1[nH]c2ccc(F)cc2c1-c1ccccc1

>  <TARGET OR TEST SYSTEM>
MDA-MB-435

>  <VALUE>
> 100 µM

$$$$
>  <MOLECULE>
CC(C)=CCN1c2ccc(Cl)cc2NC(=O)CC1C (stereo not drawn)

>  <TARGET OR TEST SYSTEM>
MDA-MB-435

>  <VALUE>
41.1 µM

$$$$
>  <MOLECULE>
COc1cc(S(=O)(=O)Nc2nc(-c3ccc(N4C(=O)/C(=C/c5ccccc5[N+](=O)[O-])N=C4c4ccccc4)cc3)cs2)ccc1Cl

>  <TARGET OR TEST SYSTEM>
MDA-MB-435

>  <VALUE>
> 100 µM

$$$$
>  <MOLECULE>
COC(=O)[C@H](Cc1ccc(O)cc1)NC(=O)[C@@H](OC)[C@@H]1Cc2cc3cc(OC4CC(OC5CC(O)C(O)C(C)O5)C(O)C(C)O4)c(C)c(O)c3c(O)c2C(=O)[C@H]1OC1CC(OC2CC(OC3CC(C)(O)C(O)C(C)O3)C(O)C(C)O2)C(O)C(C)O1 (stereo partly drawn)

>  <TARGET OR TEST SYSTEM>
MDA-MB-435

>  <VALUE>
2.33 µM

$$$$
>  <MOLECULE>
Cc1ccc(-c2nc(N3CCCNCC3)c3oc(-c4ccccc4)nc3n2)cc1

>  <TARGET OR TEST SYSTEM>
MDA-MB-435

>  <VALUE>
3.19 µM

$$$$

====

Entries and their TGI
- System: HCC-2998 colon
- TEST DESCRIPTION: NCI tumour cell line growth inhibition, 48 h

>  <COMPOUND>
COc1ccc2oc(C(=O)O)c3c2c1CCC3

>  <TGI>
> 100 µM

$$$$
>  <COMPOUND>
CC1=C([Te]c2ccc(O)cc2)C(=O)c2ccccc2C1=O

>  <TGI>
9.66 µM

$$$$
>  <COMPOUND>
O=c1c2ccccc2c2ccccc2c(=O)n1Cc1ccc2c(c1)OCO2

>  <TGI>
> 100 µM

$$$$
>  <COMPOUND>
CCC[CH2][Sn]1([CH2]CCC)[O]C(=O)c2ccc(C)cc2[O]1

>  <TGI>
2.38 µM

$$$$
>  <COMPOUND>
O=C1C(Cl)C(c2cc3cc(Br)ccc3nc2Cl)N1c1ccc(Cl)cc1 (centres undefined)

>  <TGI>
8.04 µM

$$$$
>  <COMPOUND>
CCOP(=O)(OCC)[C@H]1OC(C)(C)O[C@@H]1CO

>  <TGI>
> 100 µM

$$$$
>  <COMPOUND>
Clc1cc2n[se]nc2cc1Cl

>  <TGI>
> 100 µM

$$$$
>  <COMPOUND>
NS(=O)(=O)c1ccc(Nc2c3ccccc3nc3c(C(=O)NCCO)cccc23)cc1

>  <TGI>
0.333 µM

$$$$
>  <COMPOUND>
C=CCSSCC=C

>  <TGI>
> 100 µM

$$$$
>  <COMPOUND>
COc1cc(/C=C2\C(=O)N(C(=O)c3ccc(NC(C)=O)cc3)N=C2C)ccc1O

>  <TGI>
> 100 µM

$$$$
>  <COMPOUND>
[O-][n+]1onc2c1/C(=N/O)CCC2

>  <TGI>
> 100 µM

$$$$
>  <COMPOUND>
Nc1ncnc2c1ncn2[C@H]1CC[C@@H](NO)C1

>  <TGI>
> 100 µM

$$$$
>  <COMPOUND>
O=c1oc(=O)c2oc3ccccc3oc1=2

>  <TGI>
> 100 µM

$$$$
>  <COMPOUND>
O=C1CCCC2C3CC(CN12)C1CCCCN1C3 (centres undefined)

>  <TGI>
> 100 µM

$$$$

====

- Test system: SNB-75 CNS
- TEST DESCRIPTION: NCI tumour cell line growth inhibition, 48 h; in the data active = GI50 below about 0.43 µM; inactive = the rest
Classes used: 1 (yes) (active), 0 (no) (inactive)

>  <MOLECULE>
CCOC(=O)[C@@H](C)C[C@H](Cc1ccccc1)NC(=O)c1csc([C@@H](C[C@H](C(C)C)N(C)C(=O)[C@H](CC)NC(=O)[C@H]2CCCCN2C)OC(C)=O)n1

>  <ASSIGNED CATEGORY>
1 (yes)

$$$$
>  <MOLECULE>
O=C(/C(=C/c1ccc([N+](=O)[O-])cc1)SCc1ccc(F)cc1)c1ccc(Cl)cc1

>  <ASSIGNED CATEGORY>
0 (no)

$$$$
>  <MOLECULE>
CCCCN(CCCC)CCCn1c(=O)c2c3ccccc3n(C)c2n2nnc(-c3ccccc3)c12

>  <ASSIGNED CATEGORY>
0 (no)

$$$$
>  <MOLECULE>
COc1ccc(-c2nc(N3CCN(C(=O)C4CCCCC4)CC3)c3c4c(sc3n2)CCCC4)cc1

>  <ASSIGNED CATEGORY>
0 (no)

$$$$
>  <MOLECULE>
Cc1ccc(-c2nc(N3CCCNCC3)c3oc(-c4ccccc4)nc3n2)cc1

>  <ASSIGNED CATEGORY>
0 (no)

$$$$
>  <MOLECULE>
COc1cc(/C=C/C(=O)c2ccc(NC(=O)CSc3nnc(-c4cc(OC)c(OC)c(OC)c4)n3-c3ccccc3)cc2)cc(OC)c1OC

>  <ASSIGNED CATEGORY>
0 (no)

$$$$
>  <MOLECULE>
C=CN(C)S(C)(=O)=O

>  <ASSIGNED CATEGORY>
0 (no)

$$$$
>  <MOLECULE>
CCS(=O)(=O)Nc1cccc(Nc2c3cccc(C)c3nc3c(C)cccc23)c1OC

>  <ASSIGNED CATEGORY>
0 (no)

$$$$
>  <MOLECULE>
C[C@H](CCCNCCCNCCCN)[C@H]1CC[C@H]2[C@@H]3[C@H](OCCCN)C[C@H]4C[C@H](OCCCN)CC[C@]4(C)[C@H]3C[C@H](OCCCN)[C@]12C

>  <ASSIGNED CATEGORY>
0 (no)

$$$$
>  <MOLECULE>
Cc1cc(Oc2ccc3nc(COc4ccc(CC5SC(=O)NC5=O)cc4)n(C)c3c2)cc(C)c1N (stereo not given)

>  <ASSIGNED CATEGORY>
0 (no)

$$$$

====

- Test system: HOP-18 NSCLC
- TEST DESCRIPTION: NCI tumour cell line growth inhibition, 48 h

>  <MOLECULE>
Cc1nn(C)cc1P(=S)(c1ccccc1)c1ccccc1

>  <TGI>
> 100 µM

$$$$
>  <MOLECULE>
Cc1nn(-c2nc3ccccc3s2)c2c1C(=O)c1ccccc1-2

>  <TGI>
> 100 µM

$$$$
>  <MOLECULE>
CNC(=O)c1cccc2c(Nc3ccc(NS(C)(=O)=O)cc3OC)c3cccc(C)c3nc12

>  <TGI>
3.36 µM

$$$$
>  <MOLECULE>
COc1cc(/C=C\c2cccnc2)cc(OC)c1OC

>  <TGI>
> 100 µM

$$$$
>  <MOLECULE>
COc1ccc2[nH]cc(CCNC(=O)[C@](O)(Cc3cn(C)c4ccccc34)[C@@]3(O)OCC(O)C3O)c2c1 (stereo not given in full)

>  <TGI>
> 100 µM

$$$$
>  <MOLECULE>
O=C(Oc1ccc(Cl)cc1[N+](=O)[O-])c1ccccc1

>  <TGI>
> 100 µM

$$$$
>  <MOLECULE>
Cc1cc2c(c3oc(C4(C)OC4C4OC4C)cc(=O)c13)C(=O)c1c(O)c(C3CC(C)(N(C)C)C(O)C(C)O3)cc(C3CC(N(C)C)C(O)C(C)O3)c1C2=O (stereo not given)

>  <TGI>
0.00334 µM

$$$$
>  <MOLECULE>
COc1cc2c(cc1OC)C(=O)Cc1ccc(OC)c(OC)c1CN(C)CC2

>  <TGI>
> 100 µM

$$$$
>  <MOLECULE>
Fc1cccc2c1cc1ccc3cccc4ccc2c1c34

>  <TGI>
> 100 µM

$$$$
>  <MOLECULE>
NCCN1C(=O)C2C3c4ccccc4C(c4ccccc43)C2C1=O (stereo not given)

>  <TGI>
> 100 µM

$$$$
